- TARGET DESC: T1, histidine-tagged human Siglec-7 (NovoProtein) (human, UniProt Q9Y286 19-353)
- T1 construct: Bought protein; also called recombinant human Siglec-7; recombinant Siglec-7; not shown: histidine tag
- T1 sequence (Q9Y286 19-353 limits assumed): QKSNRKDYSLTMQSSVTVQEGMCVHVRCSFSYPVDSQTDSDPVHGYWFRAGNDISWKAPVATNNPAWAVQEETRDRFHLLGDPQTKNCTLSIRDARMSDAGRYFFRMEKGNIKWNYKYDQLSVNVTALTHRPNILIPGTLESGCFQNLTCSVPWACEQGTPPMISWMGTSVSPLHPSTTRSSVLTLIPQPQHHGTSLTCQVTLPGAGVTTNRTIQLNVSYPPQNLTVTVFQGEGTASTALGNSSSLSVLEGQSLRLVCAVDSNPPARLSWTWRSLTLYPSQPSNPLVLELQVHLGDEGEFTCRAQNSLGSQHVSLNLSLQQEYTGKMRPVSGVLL
- EXPERIMENTAL DETAILS: BLI, antibody captured
- Experimental: In this assay, the humanized antibodies were compared directly to S7AB. Briefly, the antibodies were captured on anti-human or anti-mouse IgG Fc Biosensors (Pall ForteBio). […] Apparent affinity constants (KD) were calculated from the ratio kd/kₐ. The affinities of S7AB-H8 and variants S7AB-H8.1 through S7AB-H8.45 for human Siglec-7 were measured by BioLayer Interferometry according to the method described in Example 1 above.
Recorded koff by entry
State just the number; it will be interpreted in s⁻¹.

Below are worked cases with known answers.
In: Look up koff for this binder: S7AB-H8.10 (antibody, V domains shown) VH: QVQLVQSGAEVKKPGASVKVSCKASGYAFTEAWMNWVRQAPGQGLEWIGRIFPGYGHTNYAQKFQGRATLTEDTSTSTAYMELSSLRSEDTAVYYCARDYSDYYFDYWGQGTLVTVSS VL: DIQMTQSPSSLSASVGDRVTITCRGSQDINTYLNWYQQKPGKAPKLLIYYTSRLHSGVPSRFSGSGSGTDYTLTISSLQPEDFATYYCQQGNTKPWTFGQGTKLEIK
Out: 8.14e-05

In: Look up koff for this binder: S7AB-H8.24 (antibody, V domains shown) VH: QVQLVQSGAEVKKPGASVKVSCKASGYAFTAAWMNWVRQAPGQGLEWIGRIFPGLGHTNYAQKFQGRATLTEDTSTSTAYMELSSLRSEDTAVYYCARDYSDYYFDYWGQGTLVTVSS VL: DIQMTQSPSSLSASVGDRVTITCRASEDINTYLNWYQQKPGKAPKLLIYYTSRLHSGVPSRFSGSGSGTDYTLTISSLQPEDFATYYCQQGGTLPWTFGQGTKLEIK
Out: 4.81e-06

In: Look up koff for this binder: S7AB-H8.2 (antibody, V domains shown) VH: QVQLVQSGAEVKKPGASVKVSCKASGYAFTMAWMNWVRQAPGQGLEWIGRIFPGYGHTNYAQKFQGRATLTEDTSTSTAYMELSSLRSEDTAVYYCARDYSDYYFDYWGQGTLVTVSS VL: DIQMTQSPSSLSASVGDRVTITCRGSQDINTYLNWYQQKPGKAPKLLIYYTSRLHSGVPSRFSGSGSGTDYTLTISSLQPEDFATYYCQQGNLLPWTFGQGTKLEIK
Out: 3.23e-05

Next:
In: Look up koff for this binder: S7AB-H8.38 (antibody, V domains shown) VH: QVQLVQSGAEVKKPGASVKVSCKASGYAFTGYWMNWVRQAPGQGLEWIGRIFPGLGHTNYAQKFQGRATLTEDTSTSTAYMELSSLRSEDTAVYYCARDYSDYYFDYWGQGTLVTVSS VL: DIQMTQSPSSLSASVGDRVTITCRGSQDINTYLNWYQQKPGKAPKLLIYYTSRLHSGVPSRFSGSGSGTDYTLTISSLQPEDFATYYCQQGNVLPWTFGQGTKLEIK
Out: 7.4e-05

In: Look up koff for this binder: S7AB-H8.29 (antibody, V domains shown) VH: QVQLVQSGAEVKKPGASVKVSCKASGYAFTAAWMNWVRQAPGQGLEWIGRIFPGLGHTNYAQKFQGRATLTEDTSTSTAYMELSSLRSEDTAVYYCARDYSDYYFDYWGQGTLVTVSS VL: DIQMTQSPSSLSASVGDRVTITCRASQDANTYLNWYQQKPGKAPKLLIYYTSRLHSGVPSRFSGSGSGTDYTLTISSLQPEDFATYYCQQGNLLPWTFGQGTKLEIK
Out: 4e-05

# credit: patent US20210246204A1
